meta.source: patent US20240425587A1

biological target: T1, human PILRA, G78 variant, ectopically expressed on 293 cells (human, UniProt Q9UKJ1 20-303); assay: flow cytometry, 293 cells expressing target
T1 construct: the cells are labelled G78; also called hA G78 OE; hA
T1 sequence (Q9UKJ1 other isoform, or with tags, fused parts or gaps mutant): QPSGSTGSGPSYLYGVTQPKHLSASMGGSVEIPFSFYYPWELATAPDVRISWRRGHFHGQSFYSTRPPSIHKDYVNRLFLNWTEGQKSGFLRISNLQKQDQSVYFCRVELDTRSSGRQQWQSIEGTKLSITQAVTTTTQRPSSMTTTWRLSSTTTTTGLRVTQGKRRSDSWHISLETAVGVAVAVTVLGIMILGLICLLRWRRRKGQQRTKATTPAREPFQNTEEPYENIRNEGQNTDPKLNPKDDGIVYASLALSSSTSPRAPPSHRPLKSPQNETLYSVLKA
Reported EC50 values are given for each entry in this list.
Record the value in µg/mL, omitting the unit from your answer.

Recorded EC50, per entry:
E5 (antibody, V domains shown) VH: QVQLVQSGAEVKKPGSSVKVSCKASGYTFTSYGINWVRQAPGQGLEWMGWINPNSGDTLYAQNFQGRVTITADESTSTAYMELSSLRSEDTAVYYCARGPEPYWYFDLWGRGTLVTVSS VL: EIVMTQSPATLSVSPGERATLSCRASQNIDSRFLAWYQQKPGQAPRLLIYGASTRATGIPARFSGSGSGTEFTLTISSLQSEDFAVYYCQQSFSTPLTFGGGTKVEIK; 0.1
A14 (antibody, V domains shown, phage campaign) VH: QVQLVQSGAEVKKPGASVKVSCKASGYTFTSYYMYWVRQAPGQGLEWMGWMNPNSGNTGFAQKFQGRVTMTRDTSTSTVYMELSSLRSEDTAVYYCASGYYDSWSGETDYGMDVWGQGTTVTVSS VL: DIQMTQSPSSLSASVGDRVTITCRASQSISSYLNWYQQKPGKAPKLLIYDASTLESGVPSRFSGSGSGTDFTLTISSLQPEDFATYYCQQSYKTPYTFGQGTKLEIK; 0.5
E2 (antibody, V domains shown, second hybridoma campaign) VH: EVQLQESGPSLVKPSQTLSLTCSVTGDSITSGYWNWIRKFPGDKLEYMGYISYTGTTYYNPSLKSRVSITRDTSKNQYYLQLHSVTTEDTATYYCARYPYGNFPFDYWGQGTTLTVSS VL: SIVMTQTPKFLLVSAGDRVTITCKASQSVRNDVAWYQQRPGQSPKLLIFYASSRYIGAPDRFTGSGYGTDFTFTISTVQAEDLAVYFCQQDYSSPYTFGGGTTLEIK; 0.4
A3 (antibody, V domains shown, phage campaign) VH: EVQLLESGGGLVQPGGSLRLSCAASGFTFSRYEMNWVRQAPGKGLEWVAGISYDGSYEYYADSVKGRFTISRDNSKNTLYLQMNSLRAEDTAVYYCAKGSYGYDAFDIWGQGTMVTVSS VL: DIQMTQSPSSLSASVGDRVTITCRASQSISSWLAWYQQKPGKAPKLLIYATSTLQSGVPSRFSGSGSGTDFTLTISSLQPEDFATYYCQQSYSPPYTFGQGTKVEIK; 0.1

Next binder, please.
Data request: Please report the recorded EC50 for A5 (antibody, V domains shown, phage campaign) VH: QVQLVQSGAEVKKPGSSVKVSCKASGYTFTDYYMNWVRQAPGQGLEWMGGIIPIFGTADYAQRFQGRVTITADESTSTAYMELSSLRSEDTAVYYCARDAGYYGMDVWGQGTLVTVSS VL: EIVMTQSPATLSVSPGERATLSCRASQSVSNYLAWYQQKPGQAPRLLIYGASTRATGIPARFSGSGSGTEFTLTISSLQSEDFAVYYCQQFDDLPLTFGPGTKVEIK .
Data returned: 3.4
